Overview of reported CC50 at 24 h across a group of molecules:
experiment: Cytotoxicity against human A549 cells after 24 hrs by MTT assay; type: cell-based; settings: read-out: LD50

[
  {
    "molecule": "CCCCCCC(N)C(=O)N(O)CCCN(C)C.Cl.Cl (stereo not given)",
    "measure_unit": "µM",
    "limit_sign": ">",
    "CC50 at 24 h": 100
  },
  {
    "molecule": "CCCCCCCCCCCCCCC(NC(=O)OC(C)(C)C)C(=O)N(CC[N+](C)(C)C)OCc1ccccc1.[I-] (stereo not given)",
    "measure_unit": "µM",
    "limit_sign": "=",
    "CC50 at 24 h": 27.6
  },
  {
    "molecule": "CCCCCCC(N)C(=O)N(CC[N+](C)(C)C)OCc1ccccc1.Cl.[Cl-] (stereo not given)",
    "measure_unit": "µM",
    "limit_sign": ">",
    "CC50 at 24 h": 100
  },
  {
    "molecule": "CCCCCCCCCCCCCCC(N)C(=O)N(CC[N+](C)(C)C)OCc1ccccc1.Cl.[Cl-] (stereo not given)",
    "measure_unit": "µM",
    "limit_sign": "=",
    "CC50 at 24 h": 75.3
  },
  {
    "molecule": "CCCCCCC(NC(=O)OC(C)(C)C)C(=O)N(CCC[N+](C)(C)C)OCc1ccccc1.[I-] (stereo not given)",
    "measure_unit": "µM",
    "limit_sign": ">",
    "CC50 at 24 h": 100
  },
  {
    "molecule": "CCCCCCCCCCCCCCC(N)C(=O)N(O)CC[N+](C)(C)C.Cl.[Cl-] (stereo not given)",
    "measure_unit": "µM",
    "limit_sign": "=",
    "CC50 at 24 h": 100
  },
  {
    "molecule": "CCCCCCCCCCC(NC(=O)OC(C)(C)C)C(=O)N(CCC[N+](C)(C)C)OCc1ccccc1.[I-] (stereo not given)",
    "measure_unit": "µM",
    "limit_sign": "=",
    "CC50 at 24 h": 17
  },
  {
    "molecule": "CCCCCCCCCCCCCCCCCCC(N)C(=O)N(O)CC[N+](C)(C)C.Cl.[Cl-] (stereo not given)",
    "measure_unit": "µM",
    "limit_sign": "=",
    "CC50 at 24 h": 52.7
  },
  {
    "molecule": "CCCCCCCCCCC(NC(=O)OC(C)(C)C)C(=O)N(CCCN(C)C)OCc1ccccc1 (stereo not given)",
    "measure_unit": "µM",
    "limit_sign": "=",
    "CC50 at 24 h": 6
  },
  {
    "molecule": "CCCCCCC(N)C(=O)N(CCC[N+](C)(C)C)OCc1ccccc1.Cl.[Cl-] (stereo not given)",
    "measure_unit": "µM",
    "limit_sign": ">",
    "CC50 at 24 h": 100
  }
]

###

test: Critical micelle concentration of the compound; type: physicochemical

[
  {
    "compound": "CCCCCCC(NC(=O)OC(C)(C)C)C(=O)N(CCCN(C)C)OCc1ccccc1 (stereo not given)",
    "measure_unit": "µM",
    "CMC": 75
  },
  {
    "compound": "CCCCCCCCCCCCCCC(N)C(=O)N(CC[N+](C)(C)C)OCc1ccccc1.Cl.[Cl-] (stereo not given)",
    "measure_unit": "µM",
    "CMC": 90
  },
  {
    "compound": "CCCCCCCCCCC(N)C(=O)N(CCC[N+](C)(C)C)OCc1ccccc1.Cl.[Cl-] (stereo not given)",
    "measure_unit": "µM",
    "CMC": 141
  },
  {
    "compound": "CCCCCCCCCCCCCCC(N)C(=O)N(O)CC[N+](C)(C)C.Cl.[Cl-] (stereo not given)",
    "measure_unit": "µM",
    "CMC": 120
  },
  {
    "compound": "CCCCCCC(N)C(=O)N(CCC[N+](C)(C)C)OCc1ccccc1.Cl.[Cl-] (stereo not given)",
    "measure_unit": "µM",
    "CMC": 210
  }
]
